experiment: Plasma concentration (Cmax) of gabapentin in the rat
property: Cmax

Short answer for NCC1(CC(=O)O)CCCCC1 : Cmax was 520 to 10500 ng/mL

====

I'd appreciate it if you could supply melting point values for the items below.
Counter-ions that a name gives are not always drawn.

Known results for compounds:
>  <compound>
CCC[C@@H](C)C[C@H](N)CC(=O)O.Cl

>  <melting point>
142.5 to 142.7 °C

$$$$
>  <compound>
CCCC(C)(C)C[C@H](N)CC(=O)O (as salt: hydrochloride) (hydrate or solvate)

>  <melting point>
194.2 to 195.2 °C

$$$$

Give measured melting point for every item shown.
1. CCCC[C@@H](C)C[C@H](N)CC(=O)O (as salt: hydrochloride)
2. CCCC(C)(C)CC(CN)C(=O)O.Cl (centres unmarked)
3. CCC[C@@H](C)C[C@H](CN)C(=O)O (as salt: hydrochloride)

a:
["142.5 to 143.3 °C", "229.5 to 231 °C", "226.3 to 228 °C"]

Data provenance is patent US20050065176A1.
